- System: IL-6
- assay-notes: Inhibition of IL-6 in LPS-stimulated THP-1 human monocyte cells (HTRF)
- Assay type: cell-based
- condition-parameters: IL-6 inhibition, LPS-stimulated THP-1 cells, HTRF
property-label: pEC50
Answers are plain numbers, as −log10 of the molar value.

Supply recorded pEC50 for c1csc(-c2cccc3[nH]c(-c4n[nH]c5ccc(-c6ccncc6)cc45)cc23)c1 [Compound 354] here.
6.82

Supply recorded pEC50 for c1ccc(-c2ccc3[nH]nc(-c4cc5c(-c6ccoc6)cccc5[nH]4)c3c2)nc1 [Compound 336] here.
7.05

Supply recorded pEC50 for NC1CN(c2cncc(-c3ccc4[nH]nc(-c5cc6c(N7CCCCC7)cccc6[nH]5)c4c3)n2)C1 [Compound 634] here.
7.13

Supply recorded pEC50 for CCNCc1cncc(-c2ccc3[nH]nc(-c4cc5c(-c6ccccn6)cccc5[nH]4)c3c2)c1 [Compound 146] here.
6.28

Supply recorded pEC50 for CCCC(=O)Nc1cncc(-c2ccc3[nH]nc(-c4cc5c(N6CCCCC6)cccc5[nH]4)c3c2)c1 [Compound 185] here.
5.15

Supply recorded pEC50 for CCC(=O)Nc1cncc(-c2ccc3[nH]nc(-c4cc5ccccc5[nH]4)c3c2)c1 [Compound 253] here.
6.63

Answer for every listed entry: what is its pEC50? The entries follow.
1. Nc1cncc(-c2ccc3[nH]nc(-c4cc5c(-c6ccoc6)cccc5[nH]4)c3c2)c1 [Compound 311]
2. Fc1cccc(-c2cccc3[nH]c(-c4n[nH]c5ccc(-c6ccccn6)cc45)cc23)c1 [Compound 28]
3. Cc1ccncc1-c1ccc2[nH]nc(-c3cc4c(-c5cc(F)cc(NCCN(C)C)c5)cccc4[nH]3)c2c1 [Compound 453]
4. c1cncc(-c2cccc3[nH]c(-c4n[nH]c5ccc(-c6cncnc6)cc45)cc23)c1 [Compound 111]
5. CC(C)Nc1cncc(-c2ccc3[nH]nc(-c4cc5c(N6CCN(C)CC6)cccc5[nH]4)c3c2)c1 [Compound 236]

6.28
6.99
6.61
5.51
6.60

###

- System: SW480 colon cancer cells
- assay-notes: Cell viability assay (CellTiter-Blue) in SW480 colon cancer cells
- Assay type: cell-based
- condition-parameters: Homo sapiens, 96 h, four days, CellTiter-Blue
pEC50: −log10 of the molar value.
Lab note: anything with pEC50 at or over 6 counts as true; the rest go in false.

Some solved cases for reference:
Textbook exercise: given the entry `O=C(Nc1cncc(-c2ccc3[nH]nc(-c4cc5c(-c6cccnc6)cccc5[nH]4)c3c2)c1)C1CCC1` , state whether its pEC50 is greater than or equal to 6.
true

Textbook exercise: given the entry `c1cc(-c2ccoc2)c2cc(-c3n[nH]c4ccc(-c5cnccn5)cc34)[nH]c2c1` , state whether its pEC50 is greater than or equal to 6.
false

Textbook exercise: given the entry `O=C(Nc1cncc(-c2ccc3[nH]nc(-c4cc5c(-c6cccc(F)c6)cccc5[nH]4)c3c2)c1)C1CC1` , state whether its pEC50 is greater than or equal to 6.
false

Textbook exercise: given the entry `CCCC(=O)Nc1cncc(-c2ccc3[nH]nc(-c4cc5c(-c6cc(F)cc(NCCN(C)C)c6)cccc5[nH]4)c3c2)c1` , state whether its pEC50 is greater than or equal to 6.
true

Textbook exercise: given the entry `Nc1cncc(-c2ccc3[nH]nc(-c4cc5c(-c6ccoc6)cccc5[nH]4)c3c2)c1` , state whether its pEC50 is greater than or equal to 6.
true

New cases:
Textbook exercise: given the entry `CS(=O)(=O)NCc1cc(F)cc(-c2cccc3[nH]c(-c4n[nH]c5ccc(-c6ccncc6)cc45)cc23)c1` , state whether its pEC50 is greater than or equal to 6.
false

Textbook exercise: given the entry `Cc1ncc(-c2ccc3[nH]nc(-c4cc5c(-c6ccncc6)cccc5[nH]4)c3c2)n1C` , state whether its pEC50 is greater than or equal to 6.
false

###

- Test system: SW480 colon cancer cells
- assay-notes: Cell viability assay (CellTiter-Blue) in SW480 colon cancer cells
- Assay type: cell-based
- condition-parameters: Homo sapiens, 96 h, four days, CellTiter-Blue
property-label: EC50 (nM)
One number for each entry, in nM.

Please review the following examples before continuing.
Supply recorded EC50 for `CC(C)(C)C(=O)Nc1cncc(-c2ccc3[nH]nc(-c4cc5c(-c6ccncc6)cccc5[nH]4)c3c2)c1` here.
1450

Supply recorded EC50 for `CCC(=O)Nc1cncc(-c2ccc3[nH]nc(-c4cc5c(-c6cc(F)cc(CNS(C)(=O)=O)c6)cccc5[nH]4)c3c2)c1` here.
817

Supply recorded EC50 for `c1cc(-c2ccoc2)c2cc(-c3n[nH]c4ccc(-c5cncc(OC6CCNCC6)c5)cc34)[nH]c2c1` here.
2180

Now turn to the next compound.
Supply recorded EC50 for `Nc1cncc(-c2ccc3[nH]nc(-c4cc5c(-c6ccccn6)cccc5[nH]4)c3c2)c1` here.
748

###

For each record, write down the corresponding inhibition at 10 µM.
- Test system: IL-6
- assay-notes: Inhibition of IL-6 in LPS-stimulated THP-1 human monocyte cells (HTRF)
- Format: cell-based
- condition-parameters: THP-1, printed beside >10 μM EC50, top concentration 10 μM, meaning not given, read-out: percentage in parentheses after EC50 >10
Numbers only, in %.

Please review the following examples before continuing.
Supply recorded inhibition at 10 µM for `CN(C)Cc1cncc(-c2ccc3[nH]nc(-c4cc5c(-c6ccc(F)cc6)cccc5[nH]4)c3c2)c1` here.
22.9

Supply recorded inhibition at 10 µM for `CC(C)(C)CC(=O)Nc1cncc(-c2ccc3[nH]nc(-c4cc5c(-c6ccsc6)cccc5[nH]4)c3c2)c1` here.
31.6

Supply recorded inhibition at 10 µM for `c1cc(N2CCCCC2)c2cc(-c3n[nH]c4ccc(-c5cncc(OC6CCCCC6)c5)cc34)[nH]c2c1` here.
22.6

New cases:
Supply recorded inhibition at 10 µM for `O=C(Nc1cncc(-c2ccc3[nH]nc(-c4cc5c(-c6ccsc6)cccc5[nH]4)c3c2)c1)C1CCCCC1` here.
43.9

###

- Tested on: primary human mesenchymal stem cells (hMSCs)
- assay-notes: Induction of chondrogenesis in primary human mesenchymal stem cells (nodule imaging, Rhodamine B / Nile Red)
- Assay type: cell-based
- condition-parameters: concentration required to induce 50% levels of chondrogenesis vs TGF-β3 positive control, read-out: Conc (nM) of 50% TGF-β3 activity
property-label: EC50 (nM)
Numbers only, in nM.

Please review the following examples before continuing.
Supply recorded EC50 for CCNCc1cncc(-c2ccc3[nH]nc(-c4cc5c(-c6ccncc6)cccc5[nH]4)c3c2)c1 [Compound 118] here.
30

Supply recorded EC50 for FC1(F)CCN(Cc2cncc(-c3ccc4[nH]nc(-c5cc6c(N7CCCCC7)cccc6[nH]5)c4c3)c2)C1 [Compound 194] here.
30

Supply recorded EC50 for COc1cncc(-c2ccc3[nH]nc(-c4cc5c(-c6ccoc6)cccc5[nH]4)c3c2)c1 [Compound 720] here.
10

Supply recorded EC50 for CCC(=O)Nc1cncc(-c2ccc3[nH]nc(-c4cc5c(N6CCCCC6)cccc5[nH]4)c3c2)c1 [Compound 169] here.
30

Answer for every listed entry: what is its EC50? The entries follow.
1. CN1CCN(c2cccc3[nH]c(-c4n[nH]c5ccc(-c6cncnc6)cc45)cc23)CC1 [Compound 251]
2. CS(=O)(=O)NCc1cc(F)cc(-c2cccc3[nH]c(-c4n[nH]c5ccc(-c6cncnc6)cc45)cc23)c1 [Compound 503]
3. CN(C)Cc1cncc(-c2ccc3[nH]nc(-c4cc5c(N6CCCCC6)cccc5[nH]4)c3c2)c1 [Compound 181]
4. c1cncc(-c2ccc3[nH]nc(-c4cc5ccccc5[nH]4)c3c2)c1 [Compound 256]

[100, 10, 10, 10]

###

- System: SW480 colon cancer cells
- assay-notes: Cell viability assay (CellTiter-Blue) in SW480 colon cancer cells
- Format: cell-based
- condition-parameters: Homo sapiens, 96 h, four days, CellTiter-Blue
pEC50: −log10 of the molar value.
Lab note: anything with pEC50 at or over 6 counts as Satisfied; the rest go in Not satisfied.

Some solved cases for reference:
Textbook exercise: given the entry c1cc(-c2ccoc2)c2cc(-c3n[nH]c4ccc(-c5cncc(CNCC6CCCC6)c5)cc34)[nH]c2c1 [Compound 333] , state whether its pEC50 is greater than or equal to 6.
Not satisfied

Textbook exercise: given the entry Fc1ccc(-c2cccc3[nH]c(-c4n[nH]c5ccc(C6=CCNCC6)cc45)cc23)cc1 [Compound 550] , state whether its pEC50 is greater than or equal to 6.
Not satisfied

Textbook exercise: given the entry CCC(=O)Nc1cncc(-c2ccc3[nH]nc(-c4cc5c(N6CCCCC6)cccc5[nH]4)c3c2)c1 [Compound 169] , state whether its pEC50 is greater than or equal to 6.
Not satisfied

Textbook exercise: given the entry CCNCc1cncc(-c2ccc3[nH]nc(-c4cc5c(-c6ccccc6F)cccc5[nH]4)c3c2)c1 [Compound 62] , state whether its pEC50 is greater than or equal to 6.
Not satisfied

Textbook exercise: given the entry CCCC(=O)Nc1cncc(-c2ccc3[nH]nc(-c4cc5c(-c6ccncc6)cccc5[nH]4)c3c2)c1 [Compound 129] , state whether its pEC50 is greater than or equal to 6.
Not satisfied

--- query ---
Textbook exercise: given the entry O=C(Cc1ccccc1)Nc1cncc(-c2ccc3[nH]nc(-c4cc5c(N6CCCCC6)cccc5[nH]4)c3c2)c1 [Compound 178] , state whether its pEC50 is greater than or equal to 6.
Not satisfied
